Experiment: chemical genetic growth profiling, strain panel (AID 1159580);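 also: tested at 20 µM; growth read once vehicle control cultures reached saturation at 30 °C; 1 = growth at the plate median or of vehicle wells; lower values mean less growth of the strain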
Details: S. cerevisiae deletion strains, growth OD, locus YDR195W, strain ref2
Out of some 5,500 compounds screened, about 2,000 (36%) were called active. Not shown: some 18% with an inconclusive outcome. This is one part of the list.
Label fulfilled for high-side normalized growth (at or above 0.9) and not fulfilled for low-side normalized growth (below it).

[
  {
    "MOLECULE": "COc1ccc2cc([C@H](C)C(=O)O)ccc2c1",
    "CLASS_NAME": "fulfilled"
  },
  {
    "MOLECULE": "CC(=O)OCC(=O)[C@H]1CCC2C3CCC4=CC(=O)CC[C@]4(C)C3CC[C@@]21C (stereo partly specified)",
    "CLASS_NAME": "fulfilled"
  },
  {
    "MOLECULE": "COc1ccc(OC)c(C(O)C(C)N)c1 (stereo unspecified)",
    "CLASS_NAME": "fulfilled"
  },
  {
    "MOLECULE": "CCOC(=O)c1c(C)c(Cl)c(O)c(Cl)c1O",
    "CLASS_NAME": "not fulfilled"
  },
  {
    "MOLECULE": "CC(C(=O)O)c1cccc(C(=O)c2ccccc2)c1 (stereo unspecified)",
    "CLASS_NAME": "fulfilled"
  }
]

###

Assay: chemical genetic growth profiling, strain panel (AID 1159580);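 also: tested at 20 µM; growth read once vehicle control cultures reached saturation at 30 °C; 1 = growth at the plate median or of vehicle wells; lower values mean less growth of the strain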
Conditions: S. cerevisiae deletion strains, growth OD, locus YML016C, strain PPZ1, stronger effect = lower value
Among all 5,500 compounds or so, about 2,000 (36%) were called active. Inconclusive results (about 18%) are left out. Some of the results follow.
OBSERVATION_TYPE: normalized growth

[
  {
    "COMPOUND": "CCN(CC)CCCC(C)Nc1ccnc2cc(Cl)ccc12 (configuration not stated)",
    "OBSERVATION_TYPE": "normalized growth",
    "DATA_VALUE": 1.01
  },
  {
    "COMPOUND": "c1ccc(N=Nc2ccccc2)cc1",
    "OBSERVATION_TYPE": "normalized growth",
    "DATA_VALUE": 1.01
  },
  {
    "COMPOUND": "CC(N)CCCC(C)(C)O (configuration not stated)",
    "OBSERVATION_TYPE": "normalized growth",
    "DATA_VALUE": 1
  },
  {
    "COMPOUND": "C=C(C)C1CNC(C(=O)O)C1CC(=O)O (configuration not stated)",
    "OBSERVATION_TYPE": "normalized growth",
    "DATA_VALUE": 1.02
  },
  {
    "COMPOUND": "CC(C)OC(=O)C(C)(C)Oc1ccc(C(=O)c2ccc(Cl)cc2)cc1",
    "OBSERVATION_TYPE": "normalized growth",
    "DATA_VALUE": 1.01
  },
  {
    "COMPOUND": "C[C@]12CCC(=O)C=C1CCC1C2CC[C@@]2(C)C1CC[C@@H]2O (some centres not stated)",
    "OBSERVATION_TYPE": "normalized growth",
    "DATA_VALUE": 1.02
  },
  {
    "COMPOUND": "CC1CC2C3CC(F)C4=CC(=O)C=CC4(C)C3(F)C(O)CC2(C)C1(O)C(=O)CO (configuration not stated)",
    "OBSERVATION_TYPE": "normalized growth",
    "DATA_VALUE": 1.02
  },
  {
    "COMPOUND": "CC(=O)[C@H]1CCC2C3CCC4=CC(=O)CC[C@]4(C)C3CC[C@@]21C (some centres not stated)",
    "OBSERVATION_TYPE": "normalized growth",
    "DATA_VALUE": 0.963
  },
  {
    "COMPOUND": "CN1CCCN=C1COC(=O)C(O)(c1ccccc1)C1CCCCC1 (configuration not stated)",
    "OBSERVATION_TYPE": "normalized growth",
    "DATA_VALUE": 1.01
  },
  {
    "COMPOUND": "CCCCCCCCCCCCCCCC[N+](C)(C)C",
    "OBSERVATION_TYPE": "normalized growth",
    "DATA_VALUE": 0.0596
  },
  {
    "COMPOUND": "OCCN1C[C@@H](O)[C@@H](O)C(O)C1CO (some centres not stated)",
    "OBSERVATION_TYPE": "normalized growth",
    "DATA_VALUE": 1.01
  },
  {
    "COMPOUND": "CC(N)C(=O)OC(C)(C)Cc1ccc(Cl)cc1 (configuration not stated)",
    "OBSERVATION_TYPE": "normalized growth",
    "DATA_VALUE": 0.984
  }
]
